- Target under test: Aβ42 (Homo sapiens, UniProt P05067)
- Construct: Cleavage of APP results in several Aβ isoforms; The predominant species are Aβ42 and Aβ40; purchased Anaspec (Fremont, Calif., USA)
- Sequence (P05067 672-713 limits assumed): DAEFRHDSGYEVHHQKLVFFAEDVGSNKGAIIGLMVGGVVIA
- Procedure summary: ThT-based kinetic assay of Aβ42 aggregation
- Assay type: biochemical
- Experimental setup: equimolar ratio
Measured attribute: effect on Aβ42 oligomerization/fibrillation (ThT)

{"columns": ["Query smiles", "Reported value"],
 "data": [
  ["COC(=O)c1ccc(NC(=O)c2ccc([N+](=O)[O-])c(OCc3ccccc3)n2)c(OCCCN)n1", "effective in blocking"],
  ["COC(=O)c1ccc([N+](=O)[O-])c(OCCCN)n1", "No noticeable effect"],
  ["COC(=O)c1ccc(NC(=O)c2ccc(NC(=O)c3ccc([N+](=O)[O-])c(OCCCN)n3)c(OCCCN)n2)c(OCCCN)n1", "effective in blocking"],
  ["COC(=O)c1ccc([N+](=O)[O-])c(OC2CCCCC2)n1", "No noticeable effect"]
]}
